- Test system: K562
- protocol.notes: NCI tumour cell line growth inhibition, 48 h
The source made the active and inactive calls. Rule as the data show it: active = GI50 up to about 1.1 µM and inactive = higher.
Classes used: active, inactive

molecule: O=C(O)c1nc2ccc(C(F)(F)F)cc2nc1NCc1ccc(Cl)c(Cl)c1
qualitative.label: inactive
//
molecule: C/C(=N\NC(=[Se])N1CCN(c2ccccn2)CC1)c1ccccn1
qualitative.label: active
//
molecule: CCOC(=O)/C(O)=C(/C(=O)OC)c1ccc(Cl)cc1
qualitative.label: inactive
//
molecule: O=C(CN1CCOCC1)c1ccc2c(c1)oc(=O)n2CCN1CCCCC1
qualitative.label: inactive
//
molecule: CSc1nc2c(c(O)c(C)c(=O)n2C2OCC(OC(C)=O)C(OC(C)=O)C2OC(C)=O)c(=O)n1C (stereo not given)
qualitative.label: inactive
//
molecule: NCCOCCOCC(=O)O
qualitative.label: inactive
//
molecule: CNC(=O)CCC(NC(C)=O)C(=O)NC(Cc1ccc(NC(=O)CCCCC(C)=O)cc1)C(=O)NC(CCC(=O)NC)C(=O)NC (stereo not given)
qualitative.label: inactive
//
molecule: CCCCCCCCCCCCCCCC(=O)OCC1OC(n2cc(F)c(=O)[nH]c2=O)C(NC(=O)OCc2ccccc2)C(O)C1O (stereo not given)
qualitative.label: inactive
//
molecule: c1cc(CSP234N5CCN2CCN3CCN4CC5)cc(CSP234N5CCN2CCN3CCN4CC5)c1
qualitative.label: active
//
molecule: CCOP(=O)(OCC)C(Cc1ccccc1)N=C(c1ccccc1)c1ccccc1 (stereo not given)
qualitative.label: inactive
